# assay target: T1, huCLL1-K244-Avi-Tev-His (human, UniProt Q5QGZ9 65-265)
# T1 construct: extracellular domain
# T1 sequence (looked up): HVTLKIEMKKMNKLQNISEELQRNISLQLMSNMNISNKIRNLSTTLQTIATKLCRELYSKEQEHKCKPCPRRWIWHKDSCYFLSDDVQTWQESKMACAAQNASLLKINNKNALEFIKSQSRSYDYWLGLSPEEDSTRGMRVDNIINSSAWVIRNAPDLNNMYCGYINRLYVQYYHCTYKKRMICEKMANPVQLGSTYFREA
# assay notes: BLI

{"binder": "Polypeptide No. 148 (scFv, V domains shown, scFv) VH: QVQLVQSGAEVKKPGASVKVSCKASGGTFTTYGISWVRQAPGQGLEWMGWMNPFSDNTDYAQNFQGRVTMTRDTSTSTVYMELSSLRSEDTAVYYCARGTGDDAFDIWGQGTMVTVSS VL: DIQMTQSPSSLSASVGDRVTITCRASQSISTWVAWYQQKPGKAPKLLIYAASSLQSGVPSRFSGSGSGTDFTLTISSLQPEDFATYYCQQSFSIPLTFGQGTKVEIKR", "binding result": "binds"}
{"binder": "Polypeptide No. 151 (scFv, V domains shown, scFv) VH: QVQLVQSGAEVKKPGASVKVSCKASGYTFTDYYIHWVRQAPGQGLEWMGWMNPNSGNTGYAQKFQGRVTMTRDTSTSTVYMELSSLRSEDTAVYYCARVDTADYMDVWGKGTLVTVSS VL: DIQMTQSPSSLSASVGDRVTITCRASQGISSWLAWYQQKPGKAPKLLIYDASNLQTGVPSRFSGSGSGTDFTLTISSLQPEDFATYYCQQSYSTPLTFGQGTKVEIKR", "binding result": "binds"}
{"binder": "Polypeptide No. 180 (scFv, V domains shown, scFv) VH: QVQLVQSGAEVKKPGASVKVSCKASGYTFTSLDINWVRQAPGQGLEWMGSMNPRSGSTAYAQSFQGRVTMTRDTSTSTVYMELSSLRSEDTAVYYCAKSDYGDYLDYWGQGTLVTVSS VL: DIQMTQSPSSLSASVGDRVTITCRASQSISPWLAWYQQKPGKAPKLLIYDASNLQSGVPSRFSGSGSGTDFTLTISSLQPEDFATYYCQQSYSTPLTFGQGTKLEIKR", "binding result": "binds"}
